Target: Cin5 (UniProt P40917)
Sequence: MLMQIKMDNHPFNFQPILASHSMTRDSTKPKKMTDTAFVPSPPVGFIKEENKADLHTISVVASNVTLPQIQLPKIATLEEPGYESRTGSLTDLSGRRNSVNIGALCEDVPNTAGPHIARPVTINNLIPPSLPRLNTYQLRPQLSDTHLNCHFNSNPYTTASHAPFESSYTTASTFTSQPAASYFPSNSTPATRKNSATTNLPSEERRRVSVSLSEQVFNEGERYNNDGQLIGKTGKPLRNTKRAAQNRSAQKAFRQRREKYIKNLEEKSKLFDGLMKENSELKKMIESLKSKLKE
Test: PBM E-score (8-mer binding enrichment) (E-score (-0.5 to 0.5)); higher = stronger / more preferred TF binding
Conditions: protein concentration: 100 nM; construct: GST-full length
In all, about 33,000 sequences were measured (“E-score (-0.5 to 0.5)”: median about -0.0059, highest 2% from about 0.26 on). Only a selection was taken, and the highest values are over-represented in it overall.
Each record here notes measured PBM E-score.
Lab note: jot the number down without any unit.

Examples with their reported PBM E-score follow.
Problem: I have this sequence here, AGTTGTTG , and I need its recorded PBM E-score.
Solution: 0.0199

Problem: I have this sequence here, CTAGTGTC , and I need its recorded PBM E-score.
Solution: -0.0545

Please find the next sequence below.
Problem: I have this sequence here, GGAGGATA , and I need its recorded PBM E-score.
Solution: -0.0068

====

Molecular target: Cin5 (UniProt P40917)
Sequence: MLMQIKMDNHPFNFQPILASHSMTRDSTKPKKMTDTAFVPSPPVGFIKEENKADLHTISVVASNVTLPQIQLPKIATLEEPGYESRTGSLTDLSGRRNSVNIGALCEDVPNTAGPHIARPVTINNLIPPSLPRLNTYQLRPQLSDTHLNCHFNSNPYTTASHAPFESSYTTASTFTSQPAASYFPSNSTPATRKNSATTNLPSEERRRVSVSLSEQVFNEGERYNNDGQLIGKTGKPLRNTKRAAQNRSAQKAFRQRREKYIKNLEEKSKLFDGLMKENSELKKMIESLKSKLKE
Assay: PBM E-score (8-mer binding enrichment) (E-score (-0.5 to 0.5)); higher = stronger / more preferred TF binding
Settings: protein concentration: 100 nM; construct: GST-full length
The full ranking holds about 33,000 sequences; the median of “E-score (-0.5 to 0.5)” is about -0.0059, and the highest 2% start at about 0.26. The entries come from a sample that favours the highest values as a whole.
Each record gets a class by PBM E-score: c1: < -0.02; c2: ≥ -0.02 and < 0.1; c3: ≥ 0.1

Problem: Class? Entry: ATCCGACG
Solution: c2

Problem: Class? Entry: CTATATAC
Solution: c3

More entries:
Problem: Class? Entry: CACTGCCA
Solution: c1

Problem: Class? Entry: TAAGCACA
Solution: c3

Problem: Class? Entry: CACTATAA
Solution: c1

Problem: Class? Entry: GTCAGCGA
Solution: c1

Problem: Class? Entry: CAGCTATC
Solution: c1

Problem: Class? Entry: CAAGCACG
Solution: c1

Problem: Class? Entry: CTATATGC
Solution: c3

Problem: Class? Entry: CCATCATC
Solution: c2

Problem: Class? Entry: ATCACAGA
Solution: c2

Problem: Class? Entry: ACATCATG
Solution: c2

Problem: Class? Entry: CGGCTCGC
Solution: c2

Problem: Class? Entry: GAAGCGAA
Solution: c2

Problem: Class? Entry: GATGAGTA
Solution: c3

Problem: Class? Entry: ATCAATTA
Solution: c3

Problem: Class? Entry: AGAACCTG
Solution: c1

Problem: Class? Entry: TATGTCGA
Solution: c2

Problem: Class? Entry: ACATCATA
Solution: c3

Problem: Class? Entry: CAAGTCCG
Solution: c1

Problem: Class? Entry: CATTATCC
Solution: c3

====

Target: Cin5 (UniProt P40917)
Sequence: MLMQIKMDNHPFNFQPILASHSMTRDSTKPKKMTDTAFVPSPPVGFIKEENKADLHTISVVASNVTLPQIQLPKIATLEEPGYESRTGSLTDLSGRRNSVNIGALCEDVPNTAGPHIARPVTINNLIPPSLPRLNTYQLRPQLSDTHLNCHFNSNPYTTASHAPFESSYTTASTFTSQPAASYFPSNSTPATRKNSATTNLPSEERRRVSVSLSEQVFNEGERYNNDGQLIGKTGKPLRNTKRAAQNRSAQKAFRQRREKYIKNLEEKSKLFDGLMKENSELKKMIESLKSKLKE
Experiment: PBM E-score (8-mer binding enrichment) (E-score (-0.5 to 0.5)); higher = stronger / more preferred TF binding
Conditions: protein concentration: 100 nM; construct: GST-full length
The full ranking holds about 33,000 sequences; the median of “E-score (-0.5 to 0.5)” is about -0.0059, and the highest 2% start at about 0.26. What follows is part of a selection rich in the highest values, with near analogues and random picks from the rest.
Returns one of Y or N; Y when PBM E-score is >= 0.2.

Check out these entries, answers already filled in.
Problem: Hi, just wondering whether GATTTCGA shows PBM E-score of 0.2 or higher.
Solution: N

Problem: Hi, just wondering whether ACCGTAAT shows PBM E-score of 0.2 or higher.
Solution: Y

Problem: Hi, just wondering whether CGTGATGA shows PBM E-score of 0.2 or higher.
Solution: N

Problem: Hi, just wondering whether ATTTCTCA shows PBM E-score of 0.2 or higher.
Solution: N

Problem: Hi, just wondering whether ACTGATTA shows PBM E-score of 0.2 or higher.
Solution: Y

Problem: Hi, just wondering whether CCTGCAAG shows PBM E-score of 0.2 or higher.
Solution: N

Problem: Hi, just wondering whether AATTCGCC shows PBM E-score of 0.2 or higher.
Solution: N

Problem: Hi, just wondering whether CCCACTAC shows PBM E-score of 0.2 or higher.
Solution: N

Problem: Hi, just wondering whether AATTTTTC shows PBM E-score of 0.2 or higher.
Solution: N

Problem: Hi, just wondering whether AACGTAAT shows PBM E-score of 0.2 or higher.
Solution: Y

More entries:
Problem: Hi, just wondering whether ATATTACA shows PBM E-score of 0.2 or higher.
Solution: Y

Problem: Hi, just wondering whether ATTTCTCC shows PBM E-score of 0.2 or higher.
Solution: N

Problem: Hi, just wondering whether ATTTTACC shows PBM E-score of 0.2 or higher.
Solution: Y

Problem: Hi, just wondering whether ACGCTCAC shows PBM E-score of 0.2 or higher.
Solution: N

Problem: Hi, just wondering whether CGAGCATC shows PBM E-score of 0.2 or higher.
Solution: N

Problem: Hi, just wondering whether AAGATATG shows PBM E-score of 0.2 or higher.
Solution: Y

Problem: Hi, just wondering whether CACGGGAC shows PBM E-score of 0.2 or higher.
Solution: N

Problem: Hi, just wondering whether ATATTACG shows PBM E-score of 0.2 or higher.
Solution: Y

Problem: Hi, just wondering whether ATTTTTCC shows PBM E-score of 0.2 or higher.
Solution: N

Problem: Hi, just wondering whether ACGTCTCA shows PBM E-score of 0.2 or higher.
Solution: N

Problem: Hi, just wondering whether ATATAACA shows PBM E-score of 0.2 or higher.
Solution: Y

Problem: Hi, just wondering whether GGTAAGTA shows PBM E-score of 0.2 or higher.
Solution: N

Problem: Hi, just wondering whether ATTGATTC shows PBM E-score of 0.2 or higher.
Solution: N

Problem: Hi, just wondering whether ATATAACC shows PBM E-score of 0.2 or higher.
Solution: N

Problem: Hi, just wondering whether CATTTCGC shows PBM E-score of 0.2 or higher.
Solution: N

Problem: Hi, just wondering whether CCCCATCC shows PBM E-score of 0.2 or higher.
Solution: N

Problem: Hi, just wondering whether AGAAGCTG shows PBM E-score of 0.2 or higher.
Solution: N

Problem: Hi, just wondering whether CAAGCAAG shows PBM E-score of 0.2 or higher.
Solution: N

====

Each record here notes measured PBM E-score.
Target: Cin5 (UniProt P40917)
Sequence: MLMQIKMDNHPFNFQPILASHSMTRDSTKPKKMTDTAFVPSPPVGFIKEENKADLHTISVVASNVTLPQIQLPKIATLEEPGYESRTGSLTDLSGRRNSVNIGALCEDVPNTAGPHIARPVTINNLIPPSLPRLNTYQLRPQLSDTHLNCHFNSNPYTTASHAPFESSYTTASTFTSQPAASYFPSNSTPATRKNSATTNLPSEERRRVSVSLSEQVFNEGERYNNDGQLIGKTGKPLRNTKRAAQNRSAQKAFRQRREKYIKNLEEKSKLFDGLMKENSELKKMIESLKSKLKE
Test: PBM E-score (8-mer binding enrichment) (E-score (-0.5 to 0.5)); higher = stronger / more preferred TF binding
Conditions: protein concentration: 100 nM; construct: GST-full length
In all, about 33,000 sequences were measured (“E-score (-0.5 to 0.5)”: median about -0.0059, highest 2% from about 0.26 on). The sample holds the highest values, similar sequences and a random draw of the others, so the mix is not that of the screen.
Lab note: jot the number down without any unit.

Problem: I have this sequence here, CCGTCGCC , and I need its recorded PBM E-score.
Solution: -0.0908

Problem: I have this sequence here, AACGCTAT , and I need its recorded PBM E-score.
Solution: 0.0739

Problem: I have this sequence here, AAGGTGAA , and I need its recorded PBM E-score.
Solution: -0.0511

Problem: I have this sequence here, AGTATGTG , and I need its recorded PBM E-score.
Solution: 0.14

Problem: I have this sequence here, AGAGCGCA , and I need its recorded PBM E-score.
Solution: -0.168

More entries:
Problem: I have this sequence here, CTTACATC , and I need its recorded PBM E-score.
Solution: 0.213

Problem: I have this sequence here, CTTACAAA , and I need its recorded PBM E-score.
Solution: 0.192

Problem: I have this sequence here, CGAGCTCG , and I need its recorded PBM E-score.
Solution: 0.0762

Problem: I have this sequence here, GTTATGTA , and I need its recorded PBM E-score.
Solution: 0.276

Problem: I have this sequence here, AGTACATC , and I need its recorded PBM E-score.
Solution: 0.0156
